For each entry below, report its Digitaria sanguinalis (Efficacy in %) value.
system: Digitaria sanguinalis; experiment: Herbicidal action post-emergence, greenhouse pot test; format: in vivo; settings: application rate 20 g/ha
# value in %; strip the unit string

Please report Digitaria sanguinalis (Efficacy in %) with Digitaria sanguinalis for item CCC(Sc1cc(-n2c(=O)cc(C(F)(F)F)n(C)c2=O)c(F)cc1Cl)C(=O)OCC(C)(C)C(=O)OC (stereo not shown) [I.2-32] . 100

Please report Digitaria sanguinalis (Efficacy in %) with Digitaria sanguinalis for item CCN(C)C(=O)CCOC(=O)C(C)Sc1cc(-n2c(=O)cc(C(F)(F)F)n(C)c2=O)c(F)cc1Cl (stereo not shown) [I.1-233] . 100

Please report Digitaria sanguinalis (Efficacy in %) with Digitaria sanguinalis for item CCOC(=O)CCOC(=O)C(CC)Sc1cc(-n2c(=O)cc(C(F)(F)F)n(C)c2=O)c(F)cc1Cl (stereo not shown) [I.1-2-3] . 100

Please report Digitaria sanguinalis (Efficacy in %) with Digitaria sanguinalis for item CCOC(=O)CCOC(=O)C(Sc1cc(-n2c(=O)cc(C(F)(F)F)n(C)c2=O)c(F)cc1Cl)C(C)CC (stereo not shown) [I.5-3] . 80

Please report Digitaria sanguinalis (Efficacy in %) with Digitaria sanguinalis for item CC(Sc1cc(-n2c(=O)cc(C(F)(F)F)n(C)c2=O)c(F)cc1Cl)C(=O)OC1C(=O)OCC1(C)C (stereo not shown) [I.1-142] . 100

Please report Digitaria sanguinalis (Efficacy in %) with Digitaria sanguinalis for item CCNC(=O)CCOC(=O)C(C)Sc1cc(-n2c(=O)cc(C(F)(F)F)n(C)c2=O)c(F)cc1Cl (stereo not shown) [I.1-153] . 100

Please report Digitaria sanguinalis (Efficacy in %) with Digitaria sanguinalis for item CC(Sc1cc(-n2c(=O)cc(C(F)(F)F)n(C)c2=O)c(F)cc1Cl)C(=O)OC1COC(=O)C1 (stereo not shown) [I.1-144] . 80

Please report Digitaria sanguinalis (Efficacy in %) with Digitaria sanguinalis for item CCOC(=O)CCOC(=O)C(CC)Sc1cc(-n2c(=O)c(C)c(C(F)(F)F)n(C)c2=O)c(F)cc1Cl (stereo not shown) [I.12-3] . 100

Please report Digitaria sanguinalis (Efficacy in %) with Digitaria sanguinalis for item CCOC(=O)COC(=O)C(COC)Sc1cc(-n2c(=O)cc(C(F)(F)F)n(C)c2=O)c(F)cc1Cl (stereo not shown) [I.7-43] . 100

Please report Digitaria sanguinalis (Efficacy in %) with Digitaria sanguinalis for item CCCCOC(=O)COC(=O)CSc1cc(-n2c(=O)cc(C(F)(F)F)n(C)c2=O)c(F)cc1Cl [I.8-51] . 100

Please report Digitaria sanguinalis (Efficacy in %) with Digitaria sanguinalis for item CCCCC(Sc1cc(-n2c(=O)cc(C(F)(F)F)n(C)c2=O)c(F)cc1Cl)C(=O)OCCC(=O)OCC (stereo not shown) [I.47-3] . 100

Please report Digitaria sanguinalis (Efficacy in %) with Digitaria sanguinalis for item CNC(=O)CCOC(=O)C(C)Sc1cc(-n2c(=O)cc(C(F)(F)F)n(C)c2=O)c(F)cc1Cl (stereo not shown) [I.1-152] . 100

Please report Digitaria sanguinalis (Efficacy in %) with Digitaria sanguinalis for item CCCCC(Sc1cc(-n2c(=O)cc(C(F)(F)F)n(C)c2=O)c(F)cc1Cl)C(=O)OCCC(=O)OCc1ccccc1 (stereo not shown) [I.47-6] . 80

Please report Digitaria sanguinalis (Efficacy in %) with Digitaria sanguinalis for item CCOC(=O)CCOC(=O)C(Sc1cc(-n2c(=O)cc(C(F)(F)F)n(C)c2=O)c(F)cc1Cl)C(C)C (stereo not shown) [I.6-3] . 100

Please report Digitaria sanguinalis (Efficacy in %) with Digitaria sanguinalis for item CCOC(=O)COC(=O)C(C)Sc1cc(-n2c(=O)cc(C(F)(F)F)n(C)c2=O)c(F)cc1Cl (stereo not shown) [I.1-43] . 100

Please report Digitaria sanguinalis (Efficacy in %) with Digitaria sanguinalis for item CCC(Sc1cc(-n2c(=O)cc(C(F)(F)F)n(C)c2=O)c(F)cc1Cl)C(=O)OCC1CCC(=O)O1 (stereo not shown) [I.2-145] . 100

###

tested on: Triticum aestivum; assay: Crop compatibility post-emergence, greenhouse pot test; format: in vivo; conditions: application rate 5 g/ha
MEASURED ENDPOINT: Triticum aestivum (Efficacy in %)
# value in %; strip the unit string

Input CCOC(=O)COC(=O)C(C)Sc1cc(-n2c(=O)cc(C(F)(F)F)n(C)c2=O)c(F)cc1Cl (stereo not drawn) [I.1-43] , output reported Triticum aestivum (Efficacy in %). 10

Input CNC(=O)CCOC(=O)C(C)Sc1cc(-n2c(=O)cc(C(F)(F)F)n(C)c2=O)c(F)cc1Cl (stereo not drawn) [I.1-152] , output reported Triticum aestivum (Efficacy in %). 20

Input CCCCC(Sc1cc(-n2c(=O)cc(C(F)(F)F)n(C)c2=O)c(F)cc1Cl)C(=O)OCCC(=O)OCc1ccccc1 (stereo not drawn) [I.47-6] , output reported Triticum aestivum (Efficacy in %). 20

Input CNC(=O)COC(=O)C(C)Sc1cc(-n2c(=O)cc(C(F)(F)F)n(C)c2=O)c(F)cc1Cl (stereo not drawn) [I.1-182] , output reported Triticum aestivum (Efficacy in %). 10

Input Cn1c(C(F)(F)F)cc(=O)n(-c2cc(SCC(=O)OCC(=O)OCc3ccccc3)c(Cl)cc2F)c1=O [I.8-46] , output reported Triticum aestivum (Efficacy in %). 20

Input CON(C)C(=O)COC(=O)C(C)Sc1cc(-n2c(=O)cc(C(F)(F)F)n(C)c2=O)c(F)cc1Cl (stereo not drawn) [I.1-242] , output reported Triticum aestivum (Efficacy in %). 20

Input CCCCOC(=O)COC(=O)C(C)Sc1cc(-n2c(=O)cc(C(F)(F)F)n(C)c2=O)c(F)cc1Cl (stereo not drawn) [I.1-51] , output reported Triticum aestivum (Efficacy in %). 0

Input COC(=O)C(C)(C)COC(=O)C(C)Sc1cc(-n2c(=O)cc(C(F)(F)F)n(C)c2=O)c(F)cc1Cl (stereo not drawn) [I.1-32] , output reported Triticum aestivum (Efficacy in %). 20

Input CCC(C)C(Sc1cc(-n2c(=O)cc(C(F)(F)F)n(C)c2=O)c(F)cc1Cl)C(=O)OCCC(=O)OC (stereo not drawn) [I.5-2] , output reported Triticum aestivum (Efficacy in %). 20

Input CCC(Sc1cc(-n2c(=O)cc(C(F)(F)F)n(C)c2=O)c(F)cc1Cl)C(=O)OCC(C)(C)C(=O)OC (stereo not drawn) [I.2-32] , output reported Triticum aestivum (Efficacy in %). 20

Input CC(Sc1cc(-n2c(=O)cc(C(F)(F)F)n(C)c2=O)c(F)cc1Cl)C(=O)OCC(=O)N(C)C (stereo not drawn) [I.1-241] , output reported Triticum aestivum (Efficacy in %). 10

Input CCOC(=O)CCOC(=O)C(C)Sc1cc(-n2c(=O)c(C)c(C(F)(F)F)n(C)c2=O)c(F)cc1Cl (stereo not drawn) [I.11-3] , output reported Triticum aestivum (Efficacy in %). 10
